Hey, just so you know, these numbers are from ChEMBL document CHEMBL5608113.

Tested on: Colon cancer organoid
Test: Targeting of F14 CAF-induced therapy resistance in O14 CRC organoid-stroma co-culture. Cell viability is reported with Gefitinib.
Type: functional, Homo sapiens
Conditions: Homo sapiens, Concentration 1 uM; read-out: Cell Viability
Define the label as true when viability at 1 µM is strictly less than 50% and as false in all remaining cases.

// below: answered molecules
CCS(=O)(=O)c1cc2cc(C[C@@](O)(CC(C)(C)c3ccc(F)cc3C(N)=O)C(F)(F)F)[nH]c2cn1; true
CS(=O)(=O)NCC[C@H](NC(=O)c1cncc2c1cnn2-c1ccc(F)cc1)c1ccnc(S(C)(=O)=O)c1; true

Does the reported viability at 1 µM of the following molecule sit strictly below 50%? Cc1nc(Cc2cccc(C(F)(F)F)c2)sc1-c1ccc(C(N)=O)nc1 [TP-024n]
false

# repeat for Nc1c(C(=O)NCc2ccc(C(=O)NCCCC3CCCCC3)cc2)cnn1-c1ccccc1
true

----------
Test system: Colon cancer organoid
Experiment: Targeting of F14 CAF-induced therapy resistance in O23 CRC organoid-stroma co-culture. Cell viability is reported with Gefitinib.
Format: functional, Homo sapiens
Settings: Homo sapiens, Concentration 10 uM; read-out: Cell Viability
measurement_name: viability at 10 µM

Worked cases, answers included:
CCOC(=O)CCNc1cc(N2CCc3ccccc3CC2)nc(-c2ccccn2)n1; 59.2%
C[C@@H](c1cccc(CN)c1)n1cc(Cl)cc(C(N)=O)c1=N; 51%
CNC(=O)c1cc(C(=O)N[C@H]2[C@@H]3COC[C@@H]32)cc2c1O[C@H](CF)[C@H]2c1ccccc1; 58.5%

# viability at 10 µM lookup, item CC[C@H](CC(=O)O)n1c(=O)c2ncccc2n(Cc2cn(C)c3cc(C)cc(C)c23)c1=O
60.8%

# repeat for Cc1cccc(-c2cnc3occ(-c4ccc(C(=O)O)c(C5CCCC5)c4)c3c2)c1
75.6%

# repeat for CC1(C)C(N)=Nc2cc(OCCCCN3Cc4ccc(OCc5cn(CC(=O)N6CCC(CCN7CCCC7)CC6)nn5)cc4C3)c(OCC3CC3)cc21
44%

# repeat for Cc1cc(-n2nc(Cc3cc(F)cc(C(F)(F)F)c3)nc2C)ccc1C(N)=O
79%

# repeat for O=C(O)c1ccc(-c2c[nH]c3ncc(-c4ccccc4)cc23)cc1C1CCCC1
93.5%

----------
System: Colon cancer organoid
Experiment: Targeting of F14 CAF-induced therapy resistance in O14 CRC organoid-stroma co-culture. Cell viability is reported without Gefitinib.
Assay type: functional, Homo sapiens
Details: Homo sapiens, Concentration 10 uM; read-out: Cell Viability
measurement_name: viability at 10 µM (%)
Give the quantity in %, number only.

Worked cases, answers included:
CO[C@H]1CC[C@H](CNc2ccc(S(=O)(=O)NC(=O)c3ccc(N4CCN(CC5=C(c6ccc(Cl)cc6)CC(C)(C)CC5)CC4)cc3Oc3cnc4[nH]ccc4c3)cc2[N+](=O)[O-])CC1; 40.4
CCNC(=O)c1cc2c(-c3cc(C(C)(C)O)ccc3Oc3c(C)cc(F)cc3C)cn(C)c(=O)c2[nH]1; 78.2
O=C(NNS(=O)(=O)c1ccccc1F)c1cc(F)cc(-c2ccccn2)c1; 41

# viability at 10 µM lookup, item COc1cccc2c1c(O)c(C(=O)N(C)c1ccc(C(F)(F)F)cc1)c(=O)n2C
80.1

# repeat for CCCCNNC(=O)c1ccc(Br)cc1
85.9

# repeat for Cn1cc(-c2ccc3occ(-c4cccc(-c5ccncc5)c4)c3n2)cn1
112

# repeat for CCC(F)(F)c1cc(N2CCC(S(C)(=O)=O)CC2)nc2sc(C(N)=O)c(N)c12
125

# repeat for Cc1cc(C)cc([C@H]2c3cc(C)ccc3NC(=O)CN2C(=O)c2ccc(Br)s2)c1
96.4

# repeat for Cc1cnc(-c2cc(Cl)ccc2F)cc1-n1c(=O)n(CC(N)=O)c2ccccc21
104

# repeat for CN(C)C(=O)/C(C#N)=C/c1ccc(-c2nc3cnc4[nH]ccc4c3n2C2CCCCC2)o1
117

# repeat for CN1CCN(C(=O)C(C)(C)c2ccc(C(=O)Nc3cn4cc(-c5ccncc5)ccc4n3)cc2)CC1
38.4

----------
System: Colon cancer organoid
Test: Targeting of F14 CAF-induced therapy resistance in O14 CRC organoid-stroma co-culture. Cell viability is reported without Gefitinib.
Format: functional, Homo sapiens
Conditions: Homo sapiens, Concentration 10 uM; read-out: Cell Viability
measurement_name: viability at 10 µM (%)
Give the quantity in %, number only.

Worked cases, answers included:
CNc1nc(-c2ccc3c(N)n[nH]c3c2)cc(N2C[C@@H](C(=O)NC3CCCCC3)CC[C@H]2C)n1; 57.6
COc1cc(-c2cn([C@H]3CCc4c(F)cccc4N(CC(F)(F)F)C3=O)nn2)ccc1-n1cnc(C)c1; 108
COc1ccc(CCc2nc3cc(-c4c(C)noc4C)ccc3n2C[C@H](C)N2CCOCC2)cc1Cl; 121
CNCCN1CCC(OCc2ccccc2)CC1; 42.5
COc1cc2c(cc1NS(=O)(=O)c1ccc(Br)cc1C)n(C)c(=O)n2C; 86.7
Cc1noc(C)c1-c1cnc2c(-c3ccc(C(=O)O)cc3)cn([C@@H](C)c3ccccn3)c2c1; 17.8
CC[C@H](CC(=O)O)n1c(=O)c2ncccc2n(Cc2cn(C)c3cc(C)cc(C)c23)c1=O; 93.3
Cc1c(C(=O)O)cc(-c2ccc(C3CCNCC3)cc2)c2ccc(-c3ccc(C(F)(F)F)cc3)cc12; 64.2

Lab request: please report viability at 10 µM under test system Colon cancer organoid for Cc1cc(C)cc([C@@H]2c3cc(C)ccc3NC(=O)CN2C(=O)c2ccc(Br)s2)c1
85.7

# repeat for CN(C)C(=O)Cn1cc(-c2nc(C3(c4ccc(-c5cnc(N)nc5)cc4)CC3)no2)cn1
110

# repeat for CN(C(=O)c1ccccc1)c1cc(N(C)c2ccc3c(c2)CCc2ccc(C(=O)NCCN4CCOCC4)cc2C3=O)ccc1F
142

----------
System: Colon cancer organoid
Assay: Targeting of F14 CAF-induced therapy resistance in O14 CRC organoid-stroma co-culture. Cell viability is reported without Gefitinib.
Assay type: functional, Homo sapiens
Conditions: Homo sapiens, Concentration 10 uM; read-out: Cell Viability
measurement_name: viability at 10 µM (%)
Give the quantity in %, number only.

N#CN1CC[C@@H](C(=O)Nc2nc3c(s2)CN(C(=O)CN=[N+]=[N-])CC3)C1 [JYQ88]; 137

# viability at 10 µM lookup, item CC1(C)C(N)=Nc2cc(OCCCCN3Cc4ccc(OCc5cn(CC(=O)N6CCC(CCN7CCCC7)CC6)nn5)cc4C3)c(OCC3CC3)cc21
107

# repeat for COc1cc(Nc2nccc(-c3cnn4nc(OC)ccc34)n2)cc(C(F)(F)F)c1
3.97

# repeat for C[C@H](NC(=O)Nc1cc2[nH]ncc2c(CO)n1)c1ccccn1 [ERKi-NC]
71.3

# repeat for O=C(O)c1ccc(-c2coc3ncc(-c4ccccc4)cc23)cc1Cl
71.5

# repeat for CC(=O)c1c(NS(C)(=O)=O)c2cc(-c3ccc(Cl)cc3)c(-c3ccc(Cl)cc3Cl)nc2n(C)c1=O [MRL-CB1-NC]
148

# repeat for CN1CCN(c2ccnc(NCCc3ccccc3)n2)CC1 [TP-040n]
192

# repeat for CCS(=O)(=O)Nc1ccc(Oc2ccc(F)cc2F)c(-c2cn(C)c(=O)c3[nH]ccc23)c1 [MIVEBRESIB]
5.68

# repeat for Cc1nc(C2CCN(C(=O)c3ccc(OC(F)(F)F)cc3N)CC2)c2ncc(N3CCN(C)CC3)cc2n1 [BAY-693]
76.4

# repeat for Cc1ccc2nc(CNCCCOc3ccccc3)cc(O)c2c1 [UCSF924]
105

# repeat for O=C(N1CCS(=O)(=O)CC1)N1C[C@H](c2ccc(OC(F)(F)F)cc2)C[C@H](c2nc(C3CC3)no2)C1 [BAY-386]
103

# repeat for Cn1c(-c2csc(C3CCN(CC4=NC5N=CC=CC5N4)CC3)n2)nc2ccccc21 (stereo not drawn) [BAY-070]
90.7

# repeat for CC(C)(C#Cc1ccc(NC(=O)COc2ccccc2C(=O)c2ccccc2)c(Cl)c1)C(=O)O [BI 2439]
159

----------
Tested on: Colon cancer organoid
Test: Targeting of F14 CAF-induced therapy resistance in O14 CRC organoid-stroma co-culture. Cell viability is reported without Gefitinib.
Assay type: functional, Homo sapiens
Conditions: Homo sapiens, Concentration 10 uM; read-out: Cell Viability
Define the label as MET when viability at 10 µM is strictly less than 90% and as NOT MET in all remaining cases.

Does the reported viability at 10 µM of the following compound sit strictly below 90%? CCS(=O)(=O)c1cc2cc(C[C@](O)(CC(C)(C)c3ccc(F)cc3C(N)=O)C(F)(F)F)[nH]c2cn1 [BI 653048]
NOT MET

# repeat for CN(C)C(=O)c1ccc(-c2cc(C(=O)N[C@@H]3CCc4ccccc43)no2)cc1O
MET

# repeat for Cc1cc2c(cc1N1C(=O)c3cccc4c(CCCO)ccc(c34)C1=O)n(C)c(=O)n2C
MET
